- TESTED_ON: UniProt:P62508
- TEST_DETAILS: ERRE luciferase reporter assay in HEK293 cells transfected with pcDNA3.1 ERRγ
- EXPERIMENTAL_SETUP: 24 hours treatment, luciferase activity
pEC50: −log10 of the molar value.
Could you please report measured pEC50 for the items listed next?

**Query** API: value(readout=pEC50, system=UniProt:P62508) for record Brc1cccc(C2=NNC(c3ccc4ccccc4c3)C2)c1 (centres unmarked)
**Result** < 5.30

**Query** API: value(readout=pEC50, system=UniProt:P62508) for record Oc1ccc(C2CC(c3cccc(F)c3)=NN2)cc1 (centres unmarked)
**Result** < 5.30

**Query** API: value(readout=pEC50, system=UniProt:P62508) for record Cc1ccc(O)c(C2CC(c3ccccc3)=NN2)c1 (centres unmarked)
**Result** > 6.00

**Query** API: value(readout=pEC50, system=UniProt:P62508) for record Oc1cccc(C2=NNC(c3cccc(O)c3)C2)c1 (centres unmarked)
**Result** 5.30 to 6.00

**Query** API: value(readout=pEC50, system=UniProt:P62508) for record Oc1cccc(C2CC(c3ccccc3O)=NN2)c1 (centres unmarked)
**Result** 5.30 to 6.00

**Query** API: value(readout=pEC50, system=UniProt:P62508) for record Oc1ccccc1C1CC(c2ccccn2)=NN1 (centres unmarked)
**Result** < 5.30

**Query** API: value(readout=pEC50, system=UniProt:P62508) for record Oc1ccc(C2CC(c3ccc(C(F)(F)F)cc3)=NN2)cc1 (centres unmarked)
**Result** 5.30 to 6.00

**Query** API: value(readout=pEC50, system=UniProt:P62508) for record FC(F)(F)c1ccc(C2=NNC(c3ccccc3)C2)cc1 (centres unmarked)
**Result** 5.30 to 6.00

**Query** API: value(readout=pEC50, system=UniProt:P62508) for record Oc1ccc(C2=NNC(c3ccc(Br)cc3)C2)cc1 (centres unmarked)
**Result** < 5.30

**Query** API: value(readout=pEC50, system=UniProt:P62508) for record Oc1ccccc1C1CC(c2cccs2)=NN1 (centres unmarked)
**Result** < 5.30

**Query** API: value(readout=pEC50, system=UniProt:P62508) for record COc1cccc(C2CC(c3ccc(Br)cc3)=NN2)c1O (centres unmarked)
**Result** > 6.00

###

Could you please report measured EC50 for the items listed next?
- TESTED_ON: ERRγ (Homo sapiens)
- Sequence (P62508 whole entry): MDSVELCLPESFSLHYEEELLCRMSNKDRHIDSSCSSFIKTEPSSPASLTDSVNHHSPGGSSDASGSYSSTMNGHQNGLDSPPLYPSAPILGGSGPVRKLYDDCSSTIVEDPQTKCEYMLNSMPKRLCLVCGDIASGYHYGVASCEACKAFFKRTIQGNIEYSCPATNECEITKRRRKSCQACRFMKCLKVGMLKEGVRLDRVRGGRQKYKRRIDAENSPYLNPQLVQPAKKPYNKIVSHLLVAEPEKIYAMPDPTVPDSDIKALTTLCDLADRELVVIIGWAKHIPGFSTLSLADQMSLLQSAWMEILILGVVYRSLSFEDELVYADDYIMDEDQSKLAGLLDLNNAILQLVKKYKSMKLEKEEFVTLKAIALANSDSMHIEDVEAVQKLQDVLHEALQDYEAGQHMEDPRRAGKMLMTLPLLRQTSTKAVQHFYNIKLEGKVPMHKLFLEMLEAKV
- TEST_DETAILS: ERRE luciferase reporter assay in HEK293 cells transfected with pcDNA3.1 ERRγ
- EXPERIMENTAL_SETUP: 24 hours treatment, luciferase activity

**Query** Item under review: Oc1ccccc1C1CC(c2cccc(Cl)c2)=NN1 (centres unmarked) . Reported EC50?
**Result** 1 to 5 µM

**Query** Item under review: Oc1ccccc1C1CC(c2ccc(F)cc2)=NN1 (centres unmarked) . Reported EC50?
**Result** > 5 µM

**Query** Item under review: Cc1cccc(C2=NNC(c3ccccc3O)C2)c1 (centres unmarked) . Reported EC50?
**Result** 1 to 5 µM

**Query** Item under review: COc1ccc(C2=NNC(c3ccc(C)cc3O)C2)cc1 (centres unmarked) . Reported EC50?
**Result** > 5 µM

**Query** Item under review: Oc1ccccc1C1=NNC(c2ccccc2O)C1 (centres unmarked) . Reported EC50?
**Result** > 5 µM

**Query** Item under review: Oc1ccc(C2CC(c3cccc(Br)c3)=NN2)cc1 (centres unmarked) . Reported EC50?
**Result** > 5 µM

**Query** Item under review: Oc1cccc(C2CC(c3ccc(C(F)(F)F)cc3)=NN2)c1 (centres unmarked) . Reported EC50?
**Result** 1 to 5 µM

**Query** Item under review: Oc1ccccc1C1CC(c2ccncc2)=NN1 (centres unmarked) . Reported EC50?
**Result** > 5 µM

**Query** Item under review: Oc1ccccc1C1CC(c2cccc(F)c2)=NN1 (centres unmarked) . Reported EC50?
**Result** > 5 µM

**Query** Item under review: Oc1ccccc1C1CC(c2ccc(Br)cc2)=NN1 (centres unmarked) . Reported EC50?
**Result** < 1 µM

**Query** Item under review: Oc1ccccc1C1CC(c2cccc(Br)c2)=NN1 (centres unmarked) . Reported EC50?
**Result** > 5 µM
